- assayedSystem: vitamin D receptor (VDR) (Sus scrofa)
- Construct: high speed supernatant from intestinal mucosa homogenates obtained from normal pigs; from tissue; host or cells: pig intestinal mucosa (high speed supernatant of homogenate)
- Sequence (A3RGC1 1-427): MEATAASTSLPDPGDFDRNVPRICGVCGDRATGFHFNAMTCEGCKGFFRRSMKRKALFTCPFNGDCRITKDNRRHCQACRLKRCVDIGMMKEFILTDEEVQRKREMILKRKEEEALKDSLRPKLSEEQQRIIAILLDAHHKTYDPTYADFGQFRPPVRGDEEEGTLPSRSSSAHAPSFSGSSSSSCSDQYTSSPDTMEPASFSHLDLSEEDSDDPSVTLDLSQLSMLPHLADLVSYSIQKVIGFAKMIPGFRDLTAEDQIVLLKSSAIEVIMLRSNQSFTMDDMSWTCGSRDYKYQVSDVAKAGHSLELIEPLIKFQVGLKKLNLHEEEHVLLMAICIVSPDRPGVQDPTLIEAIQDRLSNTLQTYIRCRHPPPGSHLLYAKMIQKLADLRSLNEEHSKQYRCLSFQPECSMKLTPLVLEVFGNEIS
- test: Affinity for vitamin D receptor: competition with [3H]1α,25(OH)2D3
- Format: binding
- conditionSummary: pig intestinal mucosa supernatant, 4° C. 20 hours; 1α,25(OH)2D3 = 100%
measuredAttribute: VDR (relative affinity) (%)

cpdSmiles: C=C1/C(=C\C=C\[C@@H]2CC[C@](C)([C@H](C)CC#CC(C)(C)O)C2(C)C)C[C@@H](O)C[C@@H]1O
unitsSymbol: %
observedMeasurement: 60

cpdSmiles: C=C1/C(=C\C=C\[C@@H]2CC[C@](C)([C@@H](C)CC#CC(O)(C(F)(F)F)C(F)(F)F)C2(C)C)C[C@@H](O)C[C@@H]1O
unitsSymbol: %
observedMeasurement: 75

cpdSmiles: C=C1/C(=C\C=C\[C@@H]2CC[C@](C)([C@@H](C)CCCC(O)(C(F)(F)F)C(F)(F)F)C2(C)C)C[C@@H](O)C[C@@H]1O
unitsSymbol: %
observedMeasurement: 60

cpdSmiles: C=C1/C(=C\C=C\[C@@H]2CC[C@](C)([C@H](C)CC#CC(O)(C(F)(F)F)C(F)(F)F)C2(C)C)C[C@@H](O)C[C@@H]1O
unitsSymbol: %
observedMeasurement: 60

Source listed as patent US7704986B2.
